- Tested on: Colletotrichum orbiculare
- protocol_notes: Test B: cucumber Colletotrichum anthracnose, preventive spray on cucumber seedlings
- condition_notes: 40 ppm (marked *); 100 = 100% disease control, 0 = no control
Marks after values point to notes of the source that are not given here.
The entries below come with measured Test B disease control rating values attached.

structure_notation=Cc1ccn(-c2nc(Cl)c(-c3c(F)cccc3F)n(-c3cccc(F)c3)c2=O)n1 system="Colletotrichum orbiculare" measured_parameter="Test B disease control rating" reported_measurement="80* %"
structure_notation=Cc1ccn(-c2nc(Cl)c(-c3c(F)cc(F)cc3F)n(-c3ccccc3F)c2=O)n1 system="Colletotrichum orbiculare" measured_parameter="Test B disease control rating" reported_measurement="99* %"
structure_notation=O=c1c(-n2cccn2)nc(Cl)c(-c2c(F)cc(F)cc2F)n1-c1ccc(F)c(F)c1 system="Colletotrichum orbiculare" measured_parameter="Test B disease control rating" reported_measurement="99* %"
structure_notation=O=c1c(-n2cccn2)nc(Cl)c(-c2c(F)cccc2F)n1CCO system="Colletotrichum orbiculare" measured_parameter="Test B disease control rating" reported_measurement="0* %"

Problem: Requested read-out Test B disease control rating, target or system Colletotrichum orbiculare, entry O=c1c(-n2cccn2)nc(Cl)c(-c2c(F)cc(F)cc2F)n1Cc1cccc(Br)c1
Result: 0* %

Problem: API: value(readout= Test B disease control rating, system= Colletotrichum orbiculare, query= O=c1c(-n2cccn2)nc(Cl)c(-c2c(F)cc(F)cc2F)n1-c1cccc(Br)c1 )
Result: 99* %

Problem: Field: Test B disease control rating (Colletotrichum orbiculare). Entry: CC[C@H](C)Cn1c(-c2ccc(F)cc2Cl)c(Br)nc(-n2cccn2)c1=O
Result: 100* %

Problem: Hi! What's the reported Test B disease control rating for O=c1c(-n2cccn2)nc(Cl)c(-c2c(F)cccc2F)n1-c1cc(F)cc(F)c1 on Colletotrichum orbiculare?
Result: 90* %
